# Test description: APR_HepG2_MitoMass_72hr: Apredica 72-hour HepG2 Assay for Mitochondrial Mass (AID 2282924);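 also: MitoTracker Red CMXRos stain intensity per cell imaged as mitochondrial mass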
# Condition notes: high-content imaging, actives raise or lower the signal
The source made the active and inactive calls. The calls were made as follows: active = hit-call score of the fitted dose curve at least 0.9, where 1 is the maximum; inactive = score below 0.9.
Result category, one only: T = active, F = inactive

Query: # lookup: test call for CCOC(N)=O
Response: F

Query: # lookup: test call for CCCCC(CC)C(=O)OCCOCCOCCOC(=O)C(CC)CCCC (stereo not given)
Response: F

Query: # lookup: test call for CCCCCOC(C)=O
Response: F

Query: # lookup: test call for Cc1nccn1-c1ccc(Sc2cccc(C3(C(N)=O)CCOCC3)c2)cc1
Response: F

Query: # lookup: test call for Cn1cc[nH]c1=S
Response: F

Query: # lookup: test call for c1ccc2c(c1)-c1cccc3c1c-2cc1ccccc13
Response: T

Query: # lookup: test call for COS(C)(=O)=O
Response: F

Query: # lookup: test call for Nc1ccn([C@@H]2O[C@H](CO)[C@@H](O)[C@@H]2O)c(=O)n1
Response: F

Query: # lookup: test call for OCC(CO)(CO)CO
Response: F

Query: # lookup: test call for CCCCCCCCCCCCCCCCOS(=O)(=O)O
Response: F

Query: # lookup: test call for C=CN1CCCC1=O
Response: F

Query: # lookup: test call for CCCCCCCCN(C)C
Response: F

Query: # lookup: test call for CCn1nc(C)c2c1C(=O)NCC(c1ccc(O)cc1)=N2
Response: F

Query: # lookup: test call for OC(CCl)CCl
Response: F

Query: # lookup: test call for CC(C)c1nnc2ccc(-c3ocnc3-c3cc(F)ccc3F)cn12
Response: F

---

# Read-out: Thrombomodulin, THBD (gene 7056)
# Test description: BSK_CASM3C_Thrombomodulin: BioMAP Diversity Plus: CASM3C Assay for Thrombomodulin Biomarker Activity (AID 2283051);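 also: thrombomodulin protein level measured by ELISA 24 h after dosing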
# Condition notes: primary human coronary artery smooth muscle cells; actives raise or lower the signal
Calls of active or inactive are those of the source. The calls were made as follows: active = hit-call score of the fitted dose curve at least 0.9, where 1 is the maximum; inactive = score below 0.9.
Result category, one only: T for active, F for inactive

Query: # lookup: test call for CCOC(N)=O
Response: F

Query: # lookup: test call for COc1cc2c(c(OC)c1OC)-c1ccc(OC)c(=O)cc1[C@@H](NC(C)=O)CC2
Response: F

Query: # lookup: test call for c1ccc(C(O[C@@H]2CCCN(CCc3ccc4c(c3)OCO4)C2)c2ccccc2)cc1
Response: F

Query: # lookup: test call for Cn1cc[nH]c1=S
Response: F

Query: # lookup: test call for CCCCCCCC/C=C\CCCCCCCC(=O)OC[C@@H](O)[C@H]1OC[C@H](O)[C@H]1O
Response: F

Query: # lookup: test call for O=S(=O)(O)CCC(F)(F)C(F)(F)C(F)(F)C(F)(F)C(F)(F)C(F)(F)F
Response: F

Query: # lookup: test call for CCCCCCCC1CCC(=O)O1 (configuration not stated)
Response: F

Query: # lookup: test call for Cc1ccc(S(=O)(=O)NC(=O)NN2CCCCCC2)cc1
Response: F

Query: # lookup: test call for CCCCCCCCCCCCCCO
Response: T

Query: # lookup: test call for Cc1nccn1-c1ccc(Sc2cccc(C3(C(N)=O)CCOCC3)c2)cc1
Response: F

Query: # lookup: test call for Cc1cccc(O)c1C
Response: F

Query: # lookup: test call for NCC(F)(F)C(F)(F)C(F)(F)C(F)(F)F
Response: F
